List of GI50 values.
System: LXFL 529
assay.info: NCI tumour cell line growth inhibition, 48 h
Activity calls are given as the source filed them. No stated cut-off is given here; in the data, active = GI50 up to about 1.1 µM and inactive = higher.

molecule	GI50
CC(=O)OCC1=C(COC(C)=O)C(=O)c2c(O)ccc(O)c2C1=O	2.55 µM (inactive)
COc1cc(C(=O)N[C@H]2CCc3cc(OC)c(OC)c(OC)c3-c3ccc(SC)c(=O)cc32)cc(OC)c1OC	0.00811 µM (active)
COc1ccc(C2=C(Cl)c3cc(OC)c(OC)cc3C2Cl)cc1 (stereo unspecified)	13.2 µM (inactive)
CCCCC/C=C1\CCC(CN2CCOCC2)C1=O (stereo unspecified)	5.32 µM (inactive)
Oc1cc2c(cc1O)-c1[nH]ncc1CC2	31.3 µM (inactive)
Cc1c(Cl)cccc1NC(=O)C(=O)c1c(O)c2ccc(O)cc2oc1=O	> 100 µM (inactive)

###

System: HCC 2998
assay.info: NCI tumour cell line growth inhibition, 48 h
Active and inactive are the calls of the source. No stated cut-off is given here; in the data, active = GI50 up to about 1.1 µM and inactive = higher.

compound	GI50
O=P12N(CCN1c1ccccc1)CCN2c1ccccc1	> 100 µM (inactive)
Cc1c(CCN=P(c2ccccc2)(c2ccccc2)c2ccccc2)c(=O)n2c([nH]c3ccccc32)c1C#N	> 10 µM (inactive)
Oc1c(NCn2nc(CCCCCCCCc3nn(CNc4ccc5ccccc5c4O)c(=S)o3)oc2=S)ccc2ccccc12	> 100 µM (inactive)
COc1ccc(NC(=S)NNC(=O)c2cc(-c3ccccc3)nc3ccccc23)cc1	12.1 µM (inactive)
CCNC(=S)NNC(=O)c1csc(NC(=S)NC2CCCCC2)n1	8.17 µM (inactive)
O=c1cc(/C=C/c2ccc(O)c(O)c2)cc(/C=C/c2ccc(O)c(O)c2)o1	6.68 µM (inactive)
O=C(NNC(c1ccccc1)C(F)(F)F)c1ccncc1 (stereo unspecified)	> 100 µM (inactive)
Cc1ccc(C)c(NC(=O)C(=O)Nn2c(S)nc3ccccc3c2=O)c1	> 100 µM (inactive)
N/N=C1\C(=O)N(C2CCCCCC2)C(=O)C1C(=O)NC1CCCCCC1 (stereo unspecified)	25.6 µM (inactive)
NNC(=O)c1cccc2c1Oc1ccccc1S2	> 100 µM (inactive)
Clc1ccc(Cc2nc3ccccc3nc2-c2cccc(Br)c2)cc1	1.62 µM (inactive)

###

System: KM12
assay.info: NCI tumour cell line growth inhibition, 48 h
The source made the active and inactive calls. Cut-off read from the data, not from the text of the source: active = GI50 up to about 1.1 µM and inactive = higher.
Possible outcomes: Y (active), N (inactive)

compound	classification
CSc1cnc2ccccc2c1SC1CN(Cc2ccccc2)c2ccccc2C1=O (stereo not drawn)	N
Cc1ccccc1NC(=O)C(=O)C(C(=O)c1ccccc1F)C1OC(=O)c2ccccc21 (stereo not drawn)	N
Cc1ccc(N2C(=O)C3C=CC(n4[nH]c(=O)n(Cc5ccccc5)c4=O)CC3C2=O)cc1 (stereo not drawn)	N
CC(C)CCCC(C)[C@H]1CC[C@H]2[C@@H]3CC[C@H]4C[C@@H](CCC=C(c5cc(Cl)c(O)c(C(=O)OC(C)(C)C)c5)c5cc(Cl)c(O)c(C(=O)OC(C)(C)C)c5)CC[C@]4(C)[C@H]3CC[C@]12C (stereo partly drawn)	N
Cc1ccc(-n2cc(-c3ccc(Cl)cc3)c3c(NN)ncnc32)cc1	N
O=c1[nH]nc(Cc2ccc(Cl)cc2)n1/N=C\CC/C=N\n1c(Cc2ccc(Cl)cc2)n[nH]c1=O	N
CN(C)C(=S)/N=c1\ss/c(=N\S(=O)(=O)c2ccccc2)n1-c1ccccc1	Y
CC(C)(C)OC(=O)[C@H]1CCC(=S)N1Cc1ccccc1	N

src = ChEMBL document CHEMBL1201862
